Experiment: clinical
Conditions: human, blood, oral, 50 mg, Tmax, CL002, 50 mg Q12H (Day 1), Fasted; median
testReadout: Tmax (h)
Enter your answer as a number in h; do not include the unit.

Prompt: Requested read-out: Tmax. Entry: CCCN[C@@H]1CCc2nc(N)sc2C1 [RPPX]
Completion: 1.83

---

Assay: clinical
Settings: human, blood, oral, 150 mg
testReadout: Tmax

Prompt: // query Tmax value for entry CCCN[C@@H]1CCc2nc(N)sc2C1
Completion: 2.04 h

---

Test: clinical
Conditions: human, blood, oral, 50 mg
testReadout: Cmax (ng/mL)
Enter your answer as a number in ng/mL; do not include the unit.

Prompt: I'd like to know its Cmax. The compound in question is CCCN[C@@H]1CCc2nc(N)sc2C1
Completion: 125
